The measured values listed here are drawn from ChEMBL document CHEMBL4400567.

Reported IC50 by item:
- Test Name: cells
- Format: ADME, cell-based
- Condition Parameters: Homo sapiens, NK92, 48 h
- Description: Cytotoxicity against human NK92 cells harboring JAK1/3 measured after 48 hrs by CellTiter-Glo assay
Reported Endpoint: IC50 (µM)

                                   compound  value
0  C=CC(=O)N1CCC(n2nc(-c3cc(C(C)(C)O)n(C)n3)c3c(N)ncnc32)C1 (configuration not stated)   22.1
1  C=CC(=O)N1CCCC(n2nc(-c3cc(C=O)n(C)n3)c3c(N)ncnc32)C1 (configuration not stated)   23.6
